System: NMRI mice
Method Notes: Tail suspension test in NMRI mice
Format: in vivo, mouse
Condition Label: single drug i.p. 30 min prior to test, 6 min test
Parameter Measured: immobility in tail suspension test

// solved cases for immobility in tail suspension test follow
# Compound, Target Under Test, immobility in tail suspension test
records = [
    ("Fc1ccc([C@@H]2CCNC[C@H]2COc2ccc3c(c2)OCO3)cc1", "NMRI mice", "without effect"),
    ("CNCC[C@H](Oc1cccc2ccccc12)c1cccs1", "NMRI mice", "reduced immobility"),
    ("CNCCC(Oc1ccc(C(F)(F)F)cc1)c1ccccc1 (stereo not drawn)", "NMRI mice", "without effect"),
    ("CCOc1ccccc1OC(c1ccccc1)C1CNCCO1 (stereo not drawn)", "NMRI mice", "reduced immobility"),
]

# ---- query compound ----
Input line: Item CNCCCN1c2ccccc2CCc2ccccc21 : provide immobility in tail suspension test
Output line: reduced immobility

Data credit: patent US8969400B2
